# tested.on: DRB1*0301 (DR3w17) (Homo sapiens, UniProt P01903+P01911, A100K/A102G/A103R/A169T/F55Y/I96L/K41T/L162R/M171V/P40S/Q125H/Q178H/Q39Y/R42S/S66N/T106N/T262R/W38E/Y61H)
# Construct: used as sources of human HLA class II molecules; endogenous in cells; host or cells: MAT (EBV-transformed homozygous B cell line)
# Sequence (P01903 26-254, other chains not shown): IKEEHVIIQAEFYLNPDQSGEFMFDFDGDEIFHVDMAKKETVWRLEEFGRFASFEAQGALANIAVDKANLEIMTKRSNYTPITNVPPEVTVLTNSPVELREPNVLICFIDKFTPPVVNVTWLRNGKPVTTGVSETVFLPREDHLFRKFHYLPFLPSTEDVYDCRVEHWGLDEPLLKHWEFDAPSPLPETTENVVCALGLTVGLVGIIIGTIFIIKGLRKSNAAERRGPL
# experimental.details: Class II peptide-binding assay, DR3 (pH 4.5);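 further: unlabeled peptide competing with a radiolabeled probe peptide for binding to affinity-purified HLA-DR3, IC50 regarded as an approximation of Kd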
# conditions.used: read-out: In IC50 Format DR3; Table VIII
Ends that are not written are not given here.
Could you please mark TRUE for values of IC50 below 40 µM and FALSE for values at or above it?

[[record]]
biosequence = "KYLEFISEAIIHVLHSR [Peptide 508.01]"
discrete_label = "TRUE"

[[record]]
biosequence = "FFKNIVTPRFFKNIVTPR [Peptide 613.03]"
discrete_label = "FALSE"

[[record]]
biosequence = "KIAKMEKASSVFNVVNS [Peptide 526.01]"
discrete_label = "FALSE"

[[record]]
biosequence = "VHHANENIFYCPIAIMSALA [Peptide 703.03]"
discrete_label = "FALSE"

[[record]]
biosequence = "DVFKELKVHHANENI [Peptide 519.00]"
discrete_label = "FALSE"

